- testName: HIF pathway transcriptional activators, primary screen, cell-based, U2OS HRE-luciferase, luminescence (AID 1910)
- testParameters: U2OS HRE-luciferase reporter, screened at 7.5 µM (by protocol), normalized: DMSO 0%, desferrioxamine 100%
Screen size: about 300,000 compounds; about 950 (0.32%) were called active.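 The calls were made as follows: active = mean activation of at least 10% of the iron chelator positive control signal, with at least half of replicates also reaching 10%; inconclusive = mean and replicate majority disagree about reaching 10%; inactive = mean and most replicates under 10%.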 Shown is part of a subset that was picked to be rich in actives.
Tick one outcome: 1.0 = active, 0.0 = inactive

# count of solved cases: 3
N#CCCN(C(=O)COC(=O)C1CCN(c2ccc(C(F)(F)F)cn2)CC1)c1ccc(F)cc1; 0.0
Cc1cccc(C(=O)OC(C)CN2CCCC2)c1 (stereo not given); 1.0
Cc1ccc(SCc2c(C(=O)N/N=C/C3CC=CCC3)nnn2-c2nonc2N)cc1 (stereo not given); 0.0

Hey, what did the test say about Cc1ccc(NC(=O)NC(=O)CSc2nnc(-c3ccc(OC(F)F)cc3)n2N)c(C)c1 ?
0.0

# repeat for O=C(NCCCN1CCOCC1)c1cc(-c2ccc(Cl)cc2)on1
0.0

---

activation values, listed per item
- testName: HIF pathway transcriptional activators, primary screen, cell-based, U2OS HRE-luciferase, luminescence (AID 1910)
- testParameters: U2OS HRE-luciferase reporter, active compounds read high, screened at 7.5 µM (by protocol), normalized: DMSO 0%, desferrioxamine 100%
The whole screen tested about 300,000 compounds, of which about 950 (0.32%) were called active. Only a selection was taken, and actives are over-represented in it overall.
Write down the numeric answer in % and omit the unit.

N[C@@H](Cc1ccccc1)C(=O)N1CCOCC1; 1.05
O=C(NC1CCCCC1)c1cc(C2CC2)on1; 1.35
CC1C(=O)N2CCCc3cc(S(=O)(=O)NCc4ccc(F)cc4)cc1c32 (stereo not given); 2.62
COc1ccc(NC(=O)CN(C)C(=O)c2n[nH]c3ccccc23)cc1; 2.08

Reported activation, compound COc1ccc(/C=C(\C#N)C(=O)OCC(=O)N(C)C2CCS(=O)(=O)C2)cc1 (stereo not given) : ____
-41.3

# repeat for Oc1ccc2ccccc2c1N=Nc1nccs1
68.6

# repeat for CCOC(=O)c1ccc(NC(=O)c2c(NCc3ccccc3)[nH]c(=O)[nH]c2=O)cc1
0.835

# repeat for CC(C)CN(CC(C)C)C(=O)CN1c2cccc3cccc(c23)S1(=O)=O
-19

# repeat for COc1ccc(N(CC(=O)Nc2cc(OC)ccc2OC)S(=O)(=O)c2c(C)noc2C)cc1
10.1

# repeat for CCN(CC(=O)Nc1cc(Cl)ccc1C)C(=O)Cn1c(=O)cnc2ccccc21
-0.594

# repeat for O=C(NCc1ccc(Cl)cc1)C(=O)NCC1CCCN1S(=O)(=O)c1cccs1 (stereo not given)
-0.199

# repeat for COc1ccc(CCNC(=O)CSc2nnc3ccc(-c4ccncc4)nn23)cc1
-0.329

# repeat for Cc1nc(-c2ccccc2)sc1C1(C)CC(c2cccnc2)=NO1 (stereo not given)
5.85

# repeat for Fc1ccc(-c2ccc(NCCN3CCOCC3)nn2)cc1
3.51

# repeat for COc1ccccc1-c1cc(C(=O)NCCCn2ccnc2)no1
0.0935

# repeat for Cc1ccc(NC(=O)COc2coc(CN3CCc4ccccc4C3)cc2=O)cc1Cl
-0.873

# repeat for COc1ccc(C(C#N)(CC(=O)O)c2cnccn2)cc1OC (stereo not given)
-0.732

# repeat for C/C(=N\NC(=O)Cc1ccc(Br)cc1)c1cccnc1
24.8

# repeat for Cc1ccc(Cl)cc1NC(=O)c1ccccn1
1.23

# repeat for CN(C)CCCNC(=S)N1CCC(c2nc3ccccc3[nH]2)CC1
0.0482

# repeat for CCCn1nc(C(=O)NNC(=O)CCOc2ccccc2OCC)c2ccccc2c1=O
0.594

# repeat for COc1cc(OC)c(OC)cc1CN1CCN(C(=O)c2cccc3ccccc23)CC1
-7.26
